Target: hCRTH2 receptor (Homo sapiens, UniProt Q9Y5Y4)
Construct: expressed in transfected cells; host or cells: HEK293
Sequence (Q9Y5Y4 1-395): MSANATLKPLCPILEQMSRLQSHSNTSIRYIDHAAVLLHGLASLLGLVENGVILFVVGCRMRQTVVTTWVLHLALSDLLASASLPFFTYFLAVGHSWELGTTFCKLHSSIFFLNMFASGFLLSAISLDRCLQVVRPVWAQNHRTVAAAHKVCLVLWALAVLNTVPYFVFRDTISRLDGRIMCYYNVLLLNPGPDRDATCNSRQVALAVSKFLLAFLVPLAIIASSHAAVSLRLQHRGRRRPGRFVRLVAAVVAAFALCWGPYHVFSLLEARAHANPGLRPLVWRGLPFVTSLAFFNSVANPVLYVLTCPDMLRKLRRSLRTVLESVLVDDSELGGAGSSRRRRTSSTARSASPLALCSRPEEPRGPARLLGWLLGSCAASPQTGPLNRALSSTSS
Experiment: Radioligand displacement assay (3H-PGD2) on hCRTH2 receptor membranes
Type: binding
Details: antagonistic activity; 3H-PGD2 displacement on HEK293-hCRTH2 membrane fragments
// reported log10(IC50) per item
On a log10 scale: recorded IC50, unit nM.

>  <Compound>
O=C(O)COc1ccc(F)cc1C1c2ccccc2CCN1C(=O)CC1Cc2ccccc2C1 (racemic)

>  <Endpoint result>
1.56

$$$$
>  <Compound>
O=C(O)COc1ccc(Cl)cc1C1c2ccccc2CCN1C(=O)OCc1ccccc1F (racemic)

>  <Endpoint result>
0.56

$$$$
>  <Compound>
O=C(O)COc1ccc(Cl)cc1C1c2ccccc2CCN1C(=O)OCc1ccc(F)cc1F (racemic)

>  <Endpoint result>
0.52

$$$$
>  <Compound>
O=C(O)COc1ccc(F)cc1C1c2ccccc2CCN1C(=O)CCc1ccccc1F (racemic)

>  <Endpoint result>
2.37

$$$$
>  <Compound>
Cc1ncc(COC(=O)N2CCc3ccccc3[C@H]2c2cc(Cl)ccc2OCC(=O)O)s1

>  <Endpoint result>
-0.11

$$$$
>  <Compound>
Cc1noc(C)c1S(=O)(=O)NCC(=O)N1CCc2ccccc2C1c1cc(F)ccc1OCC(=O)O (racemic)

>  <Endpoint result>
2.91

$$$$

Switching to the query record.
Given item O=C(O)COc1ccc(F)cc1C1c2ccccc2CCN1C(=O)Cc1ccc2ncccc2c1 (racemic) , the value recorded as its log10(IC50) is 1.55

Data credit: patent US8575158B2
